tested on: MRC5; experiment: Cytotoxicity against human MRC5 cells assessed as reduction in cell viability after 48 hrs by MTT assay; type: cell-based; details: MRC5, 48 h
measure_name: pIC50
Answers are plain numbers, as −log10 of the molar value.

Some solved entries appear below for comparison.
>  <query_smiles>
CN(C)CCCc1cc2c3c(c(NCCCn4cc(CCO[C@@H]5O[C@H](CO)[C@@H](O[C@@H]6O[C@H](CO)[C@H](O)[C@H](O)[C@H]6O)[C@H](O)[C@H]5O)nn4)cc4c3c1C(=O)N(CCCN(C)C)C4=O)C(=O)N(CCCN(C)C)C2=O

>  <pIC50>
5.15

$$$$
>  <query_smiles>
CCCNc1cc2c3c(c(CCCN(C)C)cc4c3c1C(=O)N(CCCN(C)C)C4=O)C(=O)N(CCCN(C)C)C2=O

>  <pIC50>
7.10

$$$$
>  <query_smiles>
CN(C)CCCN1C(=O)c2ccc3c4c(c(NCCCn5cc(CO[C@@H]6O[C@H](CO)[C@@H](O[C@@H]7O[C@H](CO)[C@H](O)[C@H](O)[C@H]7O)[C@H](O)[C@H]6O)nn5)cc(c24)C1=O)C(=O)N(CCCN(C)C)C3=O

>  <pIC50>
5.91

$$$$
>  <query_smiles>
CN(C)CCCc1cc2c3c(c(NCCCn4cc(COCCOCCOCCO[C@H]5O[C@H](CO)[C@@H](O)[C@H](O)[C@@H]5O)nn4)cc4c3c1C(=O)N(CCCN(C)C)C4=O)C(=O)N(CCCN(C)C)C2=O

>  <pIC50>
5.19

$$$$
>  <query_smiles>
CN(C)CCCN1C(=O)c2ccc3c4c(c(NCCCn5cc(CO[C@@H]6O[C@H](CO)[C@@H](O[C@H]7O[C@H](CO)[C@@H](O)[C@H](O)[C@H]7O)[C@H](O)[C@H]6O)nn5)cc(c24)C1=O)C(=O)N(CCCN(C)C)C3=O

>  <pIC50>
5.36

$$$$

Go through the list and state pIC50 for each entry.
1. CN(C)CCCN1C(=O)c2ccc3c4c(c(NCCCn5cc(CO[C@H]6O[C@H](CO)[C@@H](O)[C@H](O)[C@@H]6O)nn5)cc(c24)C1=O)C(=O)N(CCCN(C)C)C3=O
2. CN(C)CCCc1cc2c3c(c(NCCCn4cc(COCCOCCOCCO[C@@H]5O[C@H](CO)[C@@H](O[C@@H]6O[C@H](CO)[C@H](O)[C@H](O)[C@H]6O)[C@H](O)[C@H]5O)nn4)cc4c3c1C(=O)N(CCCN(C)C)C4=O)C(=O)N(CCCN(C)C)C2=O

Solution:
6.64
5.15

---

tested on: Quadruplex DNA; test: Binding affinity to 22AG telomeric G-quadruplex DNA (unknown origin) assessed as association constant by fluorescence titration assay; assay type: nucleic-acid assay
measure_name: Ka

Take a look at these entries with their results.
>  <query_smiles>
CN(C)CCCN1C(=O)c2ccc3c4c(c(NCCCn5cc(COCCOCCOCCO[C@@H]6O[C@H](CO)[C@@H](O)[C@H](O)[C@H]6O)nn5)cc(c24)C1=O)C(=O)N(CCCN(C)C)C3=O

>  <assayed_target>
Quadruplex DNA

>  <Ka>
4.8 ×10⁵ /M

$$$$
>  <query_smiles>
CN(C)CCCN1C(=O)c2ccc3c4c(c(NCCCn5cc(CCO[C@@H]6O[C@H](CO)[C@@H](O)[C@H](O)[C@H]6O)nn5)cc(c24)C1=O)C(=O)N(CCCN(C)C)C3=O

>  <assayed_target>
Quadruplex DNA

>  <Ka>
9.2 ×10⁵ /M

$$$$
>  <query_smiles>
CN(C)CCCN1C(=O)c2ccc3c4c(c(NCCCn5cc(COCCOCCOCCO[C@@H]6O[C@H](CO)[C@@H](O[C@@H]7O[C@H](CO)[C@H](O)[C@H](O)[C@H]7O)[C@H](O)[C@H]6O)nn5)cc(c24)C1=O)C(=O)N(CCCN(C)C)C3=O

>  <assayed_target>
Quadruplex DNA

>  <Ka>
8.4 ×10⁵ /M

$$$$

Read the next record carefully.
Exercise: Endpoint output: Ka of CN(C)CCCc1cc2c3c(c(NCCCn4cc(CCO[C@@H]5O[C@H](CO)[C@@H](O)[C@H](O)[C@H]5O)nn4)cc4c3c1C(=O)N(CCCN(C)C)C4=O)C(=O)N(CCCN(C)C)C2=O . Value?
Solution: 4.4 ×10⁶ /M

---

assay: Selectivity index, ratio of IC50 for human MRC5 cells to IC50 for Trypanosoma brucei Lister 427, antigenic type MiTat 1.2, clone 221a; type: toxicity; settings: MRC5 cells versus Trypanosoma brucei Lister 427, read-out: Ratio IC50
measure_name: selectivity ratio
Give bare numbers.

For every item in the list below, what is its measured selectivity ratio?
1. CN(C)CCCN1C(=O)c2ccc3c4c(c(NCCCn5cc(CCO[C@@H]6O[C@H](CO)[C@@H](O)[C@H](O)[C@H]6O)nn5)cc(c24)C1=O)C(=O)N(CCCN(C)C)C3=O
2. CCCNc1cc2c3c(ccc4c3c1C(=O)N(CCCN(C)C)C4=O)C(=O)N(CCCN(C)C)C2=O
3. CN(C)CCCc1cc2c3c(c(NCCCn4cc(COCCOCCOCCO[C@@H]5O[C@H](CO)[C@@H](O)[C@H](O)[C@H]5O)nn4)cc4c3c1C(=O)N(CCCN(C)C)C4=O)C(=O)N(CCCN(C)C)C2=O
4. CN(C)CCCc1cc2c3c(c(NCCCn4cc(CCO[C@@H]5O[C@H](CO)[C@@H](O)[C@H](O)[C@H]5O)nn4)cc4c3c1C(=O)N(CCCN(C)C)C4=O)C(=O)N(CCCN(C)C)C2=O

Solution:
[7.5, 40, 25.3, 30.2]

Exercise: I am curious: what selectivity ratio value has been reported for CN(C)CCCc1cc2c3c(c(NCCCn4cc(CO[C@@H]5O[C@H](CO)[C@@H](O[C@H]6O[C@H](CO)[C@@H](O)[C@H](O)[C@H]6O)[C@H](O)[C@H]5O)nn4)cc4c3c1C(=O)N(CCCN(C)C)C4=O)C(=O)N(CCCN(C)C)C2=O ?
Solution: 30.8

---

test system: Leishmania major; experiment: Leishmaniacidal activity against Leishmania major MHOM/IL/80/Friedlin promastigotes after 72 hrs by MTT assay; type: functional, organism-based
// returns F unless IC50 is strictly below 2 µM, in which case T

>  <query_smiles>
CN(C)CCCc1cc2c3c(c(NCCCn4cc(CCO[C@@H]5O[C@H](CO)[C@@H](O)[C@H](O)[C@H]5O)nn4)cc4c3c1C(=O)N(CCCN(C)C)C4=O)C(=O)N(CCCN(C)C)C2=O

>  <assigned_class>
F

$$$$
>  <query_smiles>
CN(C)CCCc1cc2c3c(c(NCCCn4cc(CCO[C@@H]5O[C@H](CO)[C@@H](O[C@@H]6O[C@H](CO)[C@H](O)[C@H](O)[C@H]6O)[C@H](O)[C@H]5O)nn4)cc4c3c1C(=O)N(CCCN(C)C)C4=O)C(=O)N(CCCN(C)C)C2=O

>  <assigned_class>
T

$$$$
>  <query_smiles>
CN(C)CCCN1C(=O)c2ccc3c4c(c(NCCCn5cc(COCCOCCOCCO[C@H]6O[C@H](CO)[C@@H](O)[C@H](O)[C@@H]6O)nn5)cc(c24)C1=O)C(=O)N(CCCN(C)C)C3=O

>  <assigned_class>
F

$$$$
>  <query_smiles>
CN(C)CCCN1C(=O)c2ccc3c4c(c(NCCCn5cc(CO[C@@H]6O[C@H](CO)[C@@H](O)[C@H](O)[C@H]6O)nn5)cc(c24)C1=O)C(=O)N(CCCN(C)C)C3=O

>  <assigned_class>
T

$$$$

Okay, next one:
Exercise: I wonder whether CN(C)CCCc1cc2c3c(c(NCCCn4cc(COCCOCCOCCO[C@@H]5O[C@H](CO)[C@@H](O[C@H]6O[C@H](CO)[C@@H](O)[C@H](O)[C@H]6O)[C@H](O)[C@H]5O)nn4)cc4c3c1C(=O)N(CCCN(C)C)C4=O)C(=O)N(CCCN(C)C)C2=O has IC50 below 2 µM. Can you tell?
Solution: F

---

assay: Cytotoxicity against human THP1 cells; format: cell-based; conditions: THP-1 cells, read-out: TC50 (the source's name)
measure_name: CC50

>  <query_smiles>
CN(C)CCCc1cc2c3c(c(NCCCn4cc(CCO[C@H]5O[C@H](CO)[C@@H](O)[C@H](O)[C@@H]5O)nn4)cc4c3c1C(=O)N(CCCN(C)C)C4=O)C(=O)N(CCCN(C)C)C2=O

>  <CC50>
> 10 µM

$$$$
>  <query_smiles>
CN(C)CCCc1cc2c3c(c(NCCCn4cc(CO[C@@H]5O[C@H](CO)[C@@H](O)[C@H](O)[C@H]5O)nn4)cc4c3c1C(=O)N(CCCN(C)C)C4=O)C(=O)N(CCCN(C)C)C2=O

>  <CC50>
> 10 µM

$$$$

Could you now consider this next compound?
Exercise: Fill in the blank: the reported CC50 of CN(C)CCCc1cc2c3c(c(NCCCn4cc(COCCOCCOCCO[C@@H]5O[C@H](CO)[C@@H](O)[C@H](O)[C@H]5O)nn4)cc4c3c1C(=O)N(CCCN(C)C)C4=O)C(=O)N(CCCN(C)C)C2=O is ____.
Solution: > 10 µM

Sourced from ChEMBL document CHEMBL4330066
